Taken from patent US20250388574A1.

target: hTREM2 (Homo sapiens, UniProt Q9NZC2); test: Phospho-Syk AlphaScreen/AlphaLISA assay in TREM2 and DAP12 overexpressing HEK293 cells (Example A1); assay type: cell-based; parameters: expressed in transfected cells; conditions: HEK293 cells
Sequence (Q9NZC2 19-230): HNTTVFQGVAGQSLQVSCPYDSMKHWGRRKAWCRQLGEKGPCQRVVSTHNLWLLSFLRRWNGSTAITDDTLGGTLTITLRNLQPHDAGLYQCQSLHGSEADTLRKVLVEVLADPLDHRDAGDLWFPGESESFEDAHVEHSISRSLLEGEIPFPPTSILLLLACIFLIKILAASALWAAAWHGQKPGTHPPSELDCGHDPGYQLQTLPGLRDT
Sequence (O43914 22-113 partner): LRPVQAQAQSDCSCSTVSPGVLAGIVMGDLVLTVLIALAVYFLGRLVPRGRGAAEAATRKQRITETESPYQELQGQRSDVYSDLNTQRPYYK
quantity measured: Emax

[
  {
    "molecule": "Cc1nc2cc(N3CCO[C@@H](c4cnn(C(C)C)c4)C3)nc(-c3ccc(Cl)cc3F)c2c(=O)n1C",
    "Emax": "++++ (Emax>300)"
  },
  {
    "molecule": "CCCn1c(C)nc2cc(N3CCO[C@H](c4ccccc4)C3)nc(-c3ccc(Cl)cc3F)c2c1=O [Example 186]",
    "Emax": "++++ (Emax>300)"
  },
  {
    "molecule": "Cc1nc2cc(N3CCO[C@H](c4ccsc4)C3)nc(-c3ccc(Cl)cc3F)c2c(=O)n1C (single isomer, unassigned) [Example 54]",
    "Emax": "++++ (Emax>300)"
  },
  {
    "molecule": "Cc1nc2cc(N3CCO[C@](C)(c4cnn(C)c4)C3)nc(-c3ccc(Cl)cc3F)c2c(=O)n1C",
    "Emax": "++++ (Emax>300)"
  },
  {
    "molecule": "Cc1nc2cc(N3CCO[C@@H](c4noc(C5CC5)n4)C3)nc(-c3ccc(Cl)cc3F)c2c(=O)n1C (single isomer, unassigned)",
    "Emax": "++++ (Emax>300)"
  }
]

*Q* What does the record list as Emax for Cc1nc2cc(N3CCOC(c4noc(-c5ccccc5)n4)C3)nc(-c3ccc(Cl)cc3F)c2c(=O)n1C (centres unmarked) ?
*A* +++ (Emax>200 and ≤300)

*Q* What does the record list as Emax for Cc1nc2cc(N3CCO[C@H](c4cnn(C)c4)C3)cc(-c3ccc(Cl)cc3F)c2c(=O)n1C [Example 221] ?
*A* ++++ (Emax>300)

*Q* What does the record list as Emax for Cc1nc2cc(N3CCO[C@H](c4noc(C5CC5)n4)C3)nc(-c3ccc(Cl)cc3F)c2c(=O)n1C (single isomer, unassigned) [Example 85] ?
*A* ++++ (Emax>300)

*Q* What does the record list as Emax for Cc1nc2cc(N3CCO[C@H](c4ccnc(Cl)c4)C3)nc(-c3ccc(Cl)cc3F)c2c(=O)n1C (single isomer, unassigned) ?
*A* +++ (Emax>200 and ≤300)

*Q* What does the record list as Emax for Cc1nc2cc(N3CCO[C@@H](c4cnn(CCF)c4)C3)nc(-c3ccc(Cl)cc3F)c2c(=O)n1C ?
*A* +++ (Emax>200 and ≤300)

*Q* What does the record list as Emax for Cc1nc([C@H]2CN(c3cc4nc(C)n(C)c(=O)c4c(-c4ccc(Cl)cc4F)n3)CCO2)no1 (single isomer, unassigned) ?
*A* +++ (Emax>200 and ≤300)

*Q* What does the record list as Emax for Cc1ccc([C@@H]2C[C@@H](c3cc4nc(C)n(C)c(=O)c4c(-c4ccc(Cl)cc4F)n3)CCO2)cn1 ?
*A* ++++ (Emax>300)

*Q* What does the record list as Emax for Cc1ccc([C@H]2CN(c3cc4nc(C)n(C)c(=O)c4c(-c4ccc(Cl)cc4F)n3)CCO2)cn1 (single isomer, unassigned) ?
*A* ++++ (Emax>300)

###

target: UniProt Q9NZC2; experiment: Phospho-Syk AlphaScreen/AlphaLISA assay in TREM2 and DAP12 overexpressing HEK293 cells (Example A1); assay type: cell-based; set-up: expressed in transfected cells; conditions: HEK293 cells, read-out: hTREM2 EC50
quantity measured: EC50

See these solved cases before continuing.
[
  {
    "compound": "Cc1csc(C2CN(c3cc4nc(C)n(C)c(=O)c4c(-c4ccc(Cl)cc4F)n3)CCO2)n1 (stereo not drawn) [Example 75]",
    "target desc": "UniProt Q9NZC2",
    "result": "50 to 500 nM"
  },
  {
    "compound": "COc1cc([C@H]2CN(c3cc4nc(C)n(C)c(=O)c4c(-c4ccc(Cl)cc4F)n3)CCO2)ccn1 (single isomer, unassigned) [Example 82]",
    "target desc": "UniProt Q9NZC2",
    "result": "< 50 nM"
  },
  {
    "compound": "CCCn1c(C)nc2cc(N3Cc4cnn(C)c4C3)nc(-c3ccc(Cl)cc3F)c2c1=O [Example 181]",
    "target desc": "UniProt Q9NZC2",
    "result": "3000 to 100000 nM"
  },
  {
    "compound": "Cc1nc2cc(N3CC[C@H](c4ccncc4)C3)nc(-c3ccc(Cl)cc3F)c2c(=O)n1C [Example 254]",
    "target desc": "UniProt Q9NZC2",
    "result": "3000 to 100000 nM"
  },
  {
    "compound": "CCCn1c(C)nc2cc(N3CCO[C@H](c4ccccc4)C3)nc(-c3ccc(Cl)cc3F)c2c1=O [Example 190]",
    "target desc": "UniProt Q9NZC2",
    "result": "500 to 3000 nM"
  },
  {
    "compound": "Cc1nc2cc(N3CCOC(c4cncnc4)C3)nc(-c3ccc(Cl)cc3F)c2c(=O)n1C (stereo not drawn) [Example 51]",
    "target desc": "UniProt Q9NZC2",
    "result": "50 to 500 nM"
  },
  {
    "compound": "Cc1nc2cc(N3CCO[C@@H](c4cnn(C)c4)C3)nc(C3CCCCC3)c2c(=O)n1C [Example 159]",
    "target desc": "UniProt Q9NZC2",
    "result": "500 to 3000 nM"
  },
  {
    "compound": "Cc1nc2cc(N3CCO[C@@](C)(c4cnn(C)c4)C3)nc(-c3ccc(Cl)cc3F)c2c(=O)n1C [Example 224]",
    "target desc": "UniProt Q9NZC2",
    "result": "500 to 3000 nM"
  },
  {
    "compound": "CCn1cc([C@H]2CN(c3cc4nc(C)n(C)c(=O)c4c(-c4ccc(Cl)cc4F)n3)CCO2)cn1 (single isomer, unassigned) [Example 23]",
    "target desc": "UniProt Q9NZC2",
    "result": "< 50 nM"
  },
  {
    "compound": "Cc1nc2cc(N3CCC[C@H](c4cnn(C)c4)C3)nc(-c3ccc(Cl)cc3F)c2c(=O)n1C (single isomer, unassigned) [Example 100]",
    "target desc": "UniProt Q9NZC2",
    "result": "50 to 500 nM"
  }
]

*Q* What does the record list as EC50 for Cc1nc2cc(N3CC[C@H](c4cccnc4)C3)nc(-c3ccc(Cl)cc3F)c2c(=O)n1C [Example 261] ?
*A* 3000 to 100000 nM

*Q* What does the record list as EC50 for COc1cc([C@@H]2C[C@@H](c3cc4nc(C)n(C)c(=O)c4c(-c4ccc(Cl)cc4F)n3)CCO2)ccn1 [Example 268] ?
*A* 50 to 500 nM
